assayedTarget: human orexin 2 receptor (Homo sapiens (Human))
Sequence (O43614 whole entry): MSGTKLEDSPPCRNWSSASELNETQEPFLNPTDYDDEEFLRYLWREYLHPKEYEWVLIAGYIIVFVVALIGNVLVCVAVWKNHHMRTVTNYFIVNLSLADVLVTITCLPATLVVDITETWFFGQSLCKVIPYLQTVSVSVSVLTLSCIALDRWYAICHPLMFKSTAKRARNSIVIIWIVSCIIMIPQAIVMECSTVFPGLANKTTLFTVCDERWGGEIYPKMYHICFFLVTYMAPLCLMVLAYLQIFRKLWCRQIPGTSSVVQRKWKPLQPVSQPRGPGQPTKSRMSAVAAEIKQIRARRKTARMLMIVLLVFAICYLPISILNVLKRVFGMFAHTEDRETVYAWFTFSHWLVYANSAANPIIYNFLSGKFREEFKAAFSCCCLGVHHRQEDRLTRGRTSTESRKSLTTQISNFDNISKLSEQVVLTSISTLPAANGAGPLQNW
procedureDetails: Human orexin 2 receptor radioligand binding (competitive, [3H]-EMPA, HEK293 cell preparations)
recordedConditions: human orexin 2 receptor, [3H]-EMPA competition binding; read-out: hOX2 Ki (nm)
reportedEndpoint: log10 of Ki (log10 of the value in nM)
Units before log transform: nM; reported quantity: Ki; transform: log10.

For orientation, consider the following solved cases.
| compound | recordedNumber |
| --- | --- |
| O=C(c1ccccc1-n1nccn1)N1C2CCC1C(Nc1ccc(Cl)cn1)C2 (racemic) [Example 211] | 3.26 |
| Cc1ccc(N2CCCC2)c(C(=O)N2C3CCC2C(COc2ccccn2)C3)n1 (racemic) [Example 97] | 2.92 |

Return reported log10 of Ki values for all items listed beneath this line.
1. COc1ccc2cccnc2c1C(=O)N1C2CCC1C(COc1ccccn1)C2 (racemic) [Example 88]
2. O=C(c1ccc(F)cc1-n1nccn1)N1C2CCC1C(COc1ccc(F)cn1)C2 (racemic) [Example 116]
3. O=C(c1cc(F)ccc1-n1nccn1)N1C2CCC1C(COc1ccc(F)cn1)C2 (racemic) [Example 30]
4. Cc1cccc(OCC2CC3CCC2N3C(=O)c2ccc(C)nc2-n2nccn2)n1 (racemic) [Example 139]

output:
2.84
2.50
2.17
3.81

input: Note down log10 of Ki recorded for Cc1cccc(C(=O)N2[C@@H]3CC[C@H]2[C@H](Nc2cnc(C(F)(F)F)cn2)C3)c1-c1cccnn1 [Example 263]
output: 3.04

These entries and their values trace back to patent US9062078B2.
